T/C values, listed per item
# System: MX-1 breast xenograft, nude mice, tumor weight T/C
# Protocol Text: NCI In Vivo Anticancer Drug Screen. Data for tumor model Human Mammary Carcinoma MX-1 Xenograft (intrarenal inoculation) in NU/NU Swiss (nude) mice
# Condition Description: endpoint: mean tumor weight change; dose: 25.0 mg/kg/injection; schedule: Q01DX010 (sc); vehicle: suspension in saline; higher = larger tumour
# Protocol: The antitumor activity of compounds was measured in mice bearing transplantable tumors. Survival or tumor size were measured and the results are expressed as the measurement made in the treated group (T) divided by the measurement made in the vehicle treated control group (C). The tumor model used in this assay is Human Mammary Carcinoma MX-1 Xenograft (intrarenal inoculation) in NU/NU Swiss (nude) mice
Results filed as inconclusive are left out.
Measure Name: T/C

| Test Smiles | Measured On | Test Value |
| --- | --- | --- |
| Oc1ccccc1C=NCCC[N-]CCCN=Cc1ccccc1O.[Co] | MX-1 breast xenograft, nude mice, tumor weight T/C | 85 % of control |
| CC1(C)N=C(N)N=C(N)N1c1ccc(CCCCc2ccc(S(=O)(=O)F)cc2Cl)c(Cl)c1 | MX-1 breast xenograft, nude mice, tumor weight T/C | 77 % of control |
| CS(=O)(=O)c1ncc(Br)cn1 | MX-1 breast xenograft, nude mice, tumor weight T/C | 79 % of control |
| O=C1CN(CN2CCOCC2)C(=O)CN1CN1CCOCC1 | MX-1 breast xenograft, nude mice, tumor weight T/C | 117 % of control |

----------
# Tested on: MX-1 breast xenograft, nude mice, tumor weight T/C
# Protocol Text: NCI In Vivo Anticancer Drug Screen. Data for tumor model Human Mammary Carcinoma MX-1 Xenograft (intrarenal inoculation) in NU/NU Swiss (nude) mice
# Condition Description: endpoint: mean tumor weight change; dose: 400.0 mg/kg/injection; schedule: Q04DX003 (sc); vehicle: water; higher = larger tumour
Inconclusive results are not listed.

| Molecule | T/C |
| --- | --- |
| Oc1cc2c3c(c1)c1cc4c(cc1c[n+]3CC2)OCO4 | 100 % of control |
| CC(=O)NC(C=O)OCC=O (stereo unspecified) | 91 % of control |
| O=C(O)C1CC(c2ccccc2)=NN1c1ccccc1 (stereo unspecified) | 72 % of control |
| Nc1cc(Cl)c2[nH]cnc2n1 | 42 % of control |
| NC(=O)c1csc(C2OC(CO)C(O)C2O)n1 (stereo unspecified) | 96 % of control |
| O=C(NO)c1ccc(O)c(O)c1 | 87 % of control |

----------
# System: MX-1 breast xenograft, nude mice, tumor weight T/C
# Protocol Text: NCI In Vivo Anticancer Drug Screen. Data for tumor model Human Mammary Carcinoma MX-1 Xenograft (intrarenal inoculation) in NU/NU Swiss (nude) mice
# Condition Description: endpoint: mean tumor weight change; dose: 400.0 mg/kg/injection; schedule: Q01DX010 (sc); vehicle: saline with Tween-80; higher = larger tumour
Records with an inconclusive call do not appear.
Measure Name: T/C

| Molecule | Measured On | Test Value |
| --- | --- | --- |
| CCCCc1ccc2nc(NC(=O)OC)[nH]c2c1 | MX-1 breast xenograft, nude mice, tumor weight T/C | 69 % of control |
| CN1C(=O)NC(c2ccc(Cl)cc2)(c2ccc(Cl)cc2)C1=O | MX-1 breast xenograft, nude mice, tumor weight T/C | 49 % of control |
| COC1=C(OC)C(=O)C(C/C=C(\C)CC/C=C(\C)CC/C=C(\C)CC/C=C(\C)CC/C=C(\C)CC/C=C(\C)CC/C=C(\C)CC/C=C(\C)CC/C=C(\C)CCC=C(C)C)=C(C)C1=O | MX-1 breast xenograft, nude mice, tumor weight T/C | 153 % of control |
| O=C(CO)c1ccc([N+](=O)[O-])cc1 | MX-1 breast xenograft, nude mice, tumor weight T/C | 67 % of control |
| O=C1N(Cl)C(=O)C(c2ccc(Cl)cc2)(c2ccc(Cl)cc2)N1Cl | MX-1 breast xenograft, nude mice, tumor weight T/C | 87 % of control |
| Cc1ccc(S(=O)(=O)NC(=S)S)cc1 | MX-1 breast xenograft, nude mice, tumor weight T/C | 93 % of control |
| ClCC[N+]12CC[N+](CCCl)(CC1)C2 | MX-1 breast xenograft, nude mice, tumor weight T/C | 5 % of control |
| COc1cc(C[C@H]2c3cc(OC)c(OC)cc3CCN2C)c(Oc2cc3c(cc2OC)-c2c(OC)c(OC)cc4c2[C@H](C3)N(C)CC4)cc1OC | MX-1 breast xenograft, nude mice, tumor weight T/C | 75 % of control |
| O=c1[nH]c(=O)n(C2CC(O)C(CO)O2)cc1I (stereo not drawn) | MX-1 breast xenograft, nude mice, tumor weight T/C | 48 % of control |
| O=CC=O | MX-1 breast xenograft, nude mice, tumor weight T/C | 60 % of control |
| CN1CCN(Cc2nc3cccc4c3c([n+]2[O-])-c2ccccc2-4)CC1 | MX-1 breast xenograft, nude mice, tumor weight T/C | 35 % of control |
| O=C(N/N=C\c1cc(Br)cc(Br)c1O)N/N=C/c1cc(Br)cc(Br)c1O | MX-1 breast xenograft, nude mice, tumor weight T/C | 72 % of control |
| CCOC(=O)c1ccc(NC(=O)Nc2nccs2)cc1 | MX-1 breast xenograft, nude mice, tumor weight T/C | 186 % of control |
| c1ccc2sc(SSN3CC4CCC(CC4)C3)nc2c1 | MX-1 breast xenograft, nude mice, tumor weight T/C | 95 % of control |
| COc1ccc2cc1Oc1ccc(cc1)C[C@H]1c3cc(c(OC)cc3CCN1C)Oc1c(OC)c(OC)cc3c1[C@H](C2)N(C)CC3 | MX-1 breast xenograft, nude mice, tumor weight T/C | 83 % of control |
| Oc1ccc(SCc2ccc(NCc3ccccc3)cc2)cc1 | MX-1 breast xenograft, nude mice, tumor weight T/C | 55 % of control |
| O=Cc1ccc(C(Cl)(Cl)Cl)cc1 | MX-1 breast xenograft, nude mice, tumor weight T/C | 120 % of control |
| CC1C=NNC1=O (stereo not drawn) | MX-1 breast xenograft, nude mice, tumor weight T/C | 62 % of control |
| O=CN(SSN(C=O)C1CCCCC1)C1CCCCC1 | MX-1 breast xenograft, nude mice, tumor weight T/C | 34 % of control |
| CCOC(=O)c1ccc(NC(=O)Nc2nncs2)cc1 | MX-1 breast xenograft, nude mice, tumor weight T/C | 65 % of control |
| C[C@@H](CN1CC(=O)NC(=O)C1)N1CC(=O)NC(=O)C1 | MX-1 breast xenograft, nude mice, tumor weight T/C | 39 % of control |
| Cc1ccccc1SSc1ccccc1C | MX-1 breast xenograft, nude mice, tumor weight T/C | 96 % of control |
| CCCCOC(=O)/C=C(\Br)C(=O)OCCCC | MX-1 breast xenograft, nude mice, tumor weight T/C | 205 % of control |
